System: CCRF-CEM
protocol: Growth inhibition of human CCRF-CEM cells assessed as cell growth at 10^-6 M incubated for 48 hrs by sulforhodamine B assay relative to control
Assay type: functional
assay.conditions: read-out: Activity
value.type: growth at 1 µM

Could you tell me which growth at 1 µM is on file for C#C[C@@]1(O)[C@@H](CO)O[C@@H](n2cc(I)c3c(N)ncnc32)[C@@H]1O ?
17 to 23%

Could you tell me which growth at 1 µM is on file for C#C[C@@]1(O)[C@@H](CO)O[C@@H](n2cc(Br)c3c(N)ncnc32)[C@@H]1O ?
5 to 11%

Could you tell me which growth at 1 µM is on file for C#C[C@@]1(O)[C@@H](CO)O[C@@H](n2cc(Cl)c3c(N)ncnc32)[C@@H]1O ?
7%

Could you tell me which growth at 1 µM is on file for C#C[C@@]1(O)[C@@H](CO)O[C@@H](n2ccc3c(N)ncnc32)[C@@H]1O ?
70%

Could you tell me which growth at 1 µM is on file for C#C[C@@]1(O)[C@@H](CO)O[C@@H](n2cc(F)c3c(N)ncnc32)[C@@H]1O ?
23%

###

Test system: MOLT-4
protocol: Growth inhibition of human MOLT4 cells assessed as cell growth at 10^-8 M incubated for 48 hrs by sulforhodamine B assay relative to control
Type: functional
assay.conditions: MOLT-4, 48 h, read-out: Activity
For each of the compounds below, state its growth at 0.01 µM.
Your answer is read as %, so omit the unit and give the number.

Could you tell me which growth at 0.01 µM is on file for C#C[C@@]1(O)[C@@H](CO)O[C@@H](n2ccc3c(N)ncnc32)[C@@H]1O ?
96

Could you tell me which growth at 0.01 µM is on file for C#C[C@@]1(O)[C@@H](CO)O[C@@H](n2cc(F)c3c(N)ncnc32)[C@@H]1O ?
99

###

Tested on: HT-29
protocol: Growth inhibition of human HT-29 cells assessed as cell growth at 10^-4 M incubated for 48 hrs by sulforhodamine B assay relative to control
Format: functional
assay.conditions: HT-29, 48 h, read-out: Activity
For each of the compounds below, state its growth at 100 µM.
Your answer is read as %, so omit the unit and give the number.

Could you tell me which growth at 100 µM is on file for C#C[C@@]1(O)[C@@H](CO)O[C@@H](n2cc(F)c3c(N)ncnc32)[C@@H]1O ?
2

Could you tell me which growth at 100 µM is on file for C#C[C@@]1(O)[C@@H](CO)O[C@@H](n2cc(Cl)c3c(N)ncnc32)[C@@H]1O ?
1

Could you tell me which growth at 100 µM is on file for C#C[C@@]1(O)[C@@H](CO)O[C@@H](n2ccc3c(N)ncnc32)[C@@H]1O ?
-17

###

System: SNB-19
protocol: Cytotoxicity against human SNB19 cells after 48 hrs by SRB assay
Format: functional
assay.conditions: SNB-19, 48 h, read-out: TGI
value.type: TGI (µM)
Your answer is read as µM, so omit the unit and give the number.

Could you tell me which TGI is on file for C#C[C@@]1(O)[C@@H](CO)O[C@@H](n2ccc3c(N)ncnc32)[C@@H]1O ?
6.6

Could you tell me which TGI is on file for C#C[C@@]1(O)[C@@H](CO)O[C@@H](n2cc(F)c3c(N)ncnc32)[C@@H]1O ?
13.7

Could you tell me which TGI is on file for C#C[C@@]1(O)[C@@H](CO)O[C@@H](n2cc(Cl)c3c(N)ncnc32)[C@@H]1O ?
0.294
